Data origin: patent US10377791B2

Recorded inhibition at 1 µM by entry
# experimentalSystem: recombinant human 17β-HSD2 (Homo sapiens, UniProt P37059)
# Construct: made in house; host or cells: Sd9 (Sf9) insect cells, baculovirus (Bac to Bac Expression System)
# testProtocol: Inhibition of recombinant human 17β-HSD2
# Type: biochemical
# studyConditions: inhibitor at 1 μM; 50 nM estradiol, 1 mM NADH, 30 min at RT; read-out: 17β-HSD2 Inhibition % at 1 μM
Just the number please, in %, no unit attached.

Known inhibition at 1 µM results, listed for orientation:
molecule	quantity	measuredResult
Cc1cnc(NC(=O)CC[C@@H]2CC(=O)[C@@]3(C)CCC4c5cc(CN6CCOCC6)c(O)cc5CCC4C23)s1 (stereo partly shown)	inhibition at 1 µM	0
Cc1cnc(NC(=O)CC[C@@H]2CC(=O)[C@@]3(C)CCC4c5ccc(OS(N)(=O)=O)cc5CCC4C23)s1 (stereo partly shown)	inhibition at 1 µM	3
Cc1cnc(NC(=O)CC[C@@H]2CC(=O)[C@@]3(C)CCC4c5ccc(OS(=O)(=O)O)cc5CCC4C23)s1 (stereo partly shown)	inhibition at 1 µM	4

# input Need inhibition at 1 µM, item COc1cc2c(cc1C(C)=O)C1CC[C@]3(C)C(=O)C[C@@H](CCC(=O)Nc4ncc(C)s4)C3C1CC2 (stereo partly shown)
# output 3

# input And Cc1cnc(NC(=O)CC[C@@H]2CC(=O)[C@@]3(C)CCC4c5cc6ncoc6c(F)c5CCC4C23)s1 (stereo partly shown) ?
# output 1

# input And Cc1cnc(NC(=O)CC[C@@H]2CC(=O)[C@@]3(C)CCC4c5cc(I)c(O)cc5CCC4C23)s1 (stereo partly shown) ?
# output 7

# input And Cc1cnc(NC(=O)CC[C@@H]2CC(=O)[C@@]3(C)CCC4c5ccc(OS(C)(=O)=O)c([N+](=O)[O-])c5CCC4C23)s1 (stereo partly shown) ?
# output 1

###

Recorded inhibition at 1 µM by entry
# experimentalSystem: recombinant human 17β-HSD2 (Homo sapiens, UniProt P37059)
# Construct: made in house; host or cells: Sd9 (Sf9) insect cells, baculovirus (Bac to Bac Expression System)
# testProtocol: Inhibition of recombinant human 17β-HSD2
# Assay type: biochemical
# studyConditions: inhibitor at 1 μM; 50 nM estradiol, 1 mM NADH, 30 min at RT; read-out: 17β-HSD2 Inhibition % at 1 μM
Just the number please, in %, no unit attached.

compound	experimentalSystem	quantity	valueUnits	measuredResult
Cc1cnc(NC(=O)CC[C@@H]2CC(=O)[C@@]3(C)CCC4c5cc(C#N)c(O)cc5CCC4C23)s1 (stereo partly drawn) [Compound 91]	recombinant human 17β-HSD2 (Homo sapiens, UniProt P37059)	inhibition at 1 µM	%	1

# input Lookup: inhibition at 1 µM / recombinant human 17β-HSD2 (Homo sapiens, UniProt P37059) / Cc1cnc(NC(=O)CC[C@@H]2CC(=O)[C@@]3(C)CCC4c5cc(O)ccc5CCC4C23)s1 (stereo partly drawn) [Compound 88]
# output 1

# input And Cc1ccc(S(=O)(=O)Oc2ccc3c(c2)CCC2C3CC[C@]3(C)C(=O)C[C@@H](CCC(=O)Nc4ncc(C)s4)C23)cc1 (stereo partly drawn) [Compound 27] ?
# output 5

###

Recorded inhibition at 1 µM by entry
# experimentalSystem: recombinant human 17β-HSD1 (Homo sapiens, UniProt P14061)
# Construct: made in house; host or cells: Sd9 (Sf9) insect cells, baculovirus (Bac to Bac Expression System)
# Sequence (P14061 whole entry): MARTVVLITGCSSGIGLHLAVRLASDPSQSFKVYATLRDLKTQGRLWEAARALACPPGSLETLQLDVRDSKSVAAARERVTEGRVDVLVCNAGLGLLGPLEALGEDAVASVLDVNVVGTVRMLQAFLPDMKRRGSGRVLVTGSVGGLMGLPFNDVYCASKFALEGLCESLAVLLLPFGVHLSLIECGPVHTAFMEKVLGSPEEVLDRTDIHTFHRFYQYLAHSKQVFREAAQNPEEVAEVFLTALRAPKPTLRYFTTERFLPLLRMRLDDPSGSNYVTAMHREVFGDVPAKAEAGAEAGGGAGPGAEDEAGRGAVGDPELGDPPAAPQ
# testProtocol: Inhibition of recombinant human 17β-HSD1
# Format: biochemical
# studyConditions: inhibitor at 1 μM; 30 nM estrone, 1 mM NADPH, 30 min at RT; read-out: 17β-HDS1 Inhibition % at 1 μM
Just the number please, in %, no unit attached.

molecule	quantity	valueUnits	measuredResult
Cc1cnc(NC(=O)CC[C@@H]2CC(=O)[C@@]3(C)CCC4c5cc6ncoc6c(F)c5CCC4C23)s1 (some centres unmarked)	inhibition at 1 µM	%	91
Cc1cnc(NC(=O)CC[C@@H]2CC(=O)[C@@]3(C)CCC4c5cc(I)c(O)cc5CCC4C23)s1 (some centres unmarked)	inhibition at 1 µM	%	98
Cc1cnc(NC(=O)CC[C@@H]2CC(=O)[C@@]3(C)CCC4c5cc(C#N)c(O)cc5CCC4C23)s1 (some centres unmarked)	inhibition at 1 µM	%	97
Cc1cnc(NC(=O)CC[C@@H]2CC(=O)[C@@]3(C)CCC4c5cc(Br)c(O)cc5CCC4C23)s1 (some centres unmarked)	inhibition at 1 µM	%	93

Here's the next entry for you.
# input Need inhibition at 1 µM, item Cc1cnc(NC(=O)CC[C@@H]2CC(=O)[C@@]3(C)CCC4c5cc6ncoc6cc5CCC4C23)s1 (some centres unmarked)
# output 87

###

# experimentalSystem: recombinant human 17β-HSD2 (Homo sapiens)
# Construct: made in house; host or cells: Sd9 (Sf9) insect cells, baculovirus (Bac to Bac Expression System)
# Sequence (P37059 1-387): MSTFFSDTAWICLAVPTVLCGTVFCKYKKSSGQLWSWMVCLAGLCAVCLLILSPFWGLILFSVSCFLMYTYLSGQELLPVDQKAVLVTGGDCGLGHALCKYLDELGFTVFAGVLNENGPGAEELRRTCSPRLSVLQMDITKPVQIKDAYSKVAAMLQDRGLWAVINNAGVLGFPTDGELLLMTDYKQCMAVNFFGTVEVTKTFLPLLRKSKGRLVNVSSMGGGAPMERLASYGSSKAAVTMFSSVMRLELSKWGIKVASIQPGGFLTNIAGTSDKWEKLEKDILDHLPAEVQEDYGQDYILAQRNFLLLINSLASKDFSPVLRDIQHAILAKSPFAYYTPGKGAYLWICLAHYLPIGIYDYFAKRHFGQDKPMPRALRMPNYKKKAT
# testProtocol: Inhibition of recombinant human 17β-HSD2
# Type: biochemical
# studyConditions: inhibitor at 1 μM; 50 nM estradiol, 1 mM NADH, 30 min at RT; read-out: 17β-HSD2 Inhibition % at 1 μM
quantity: inhibition at 1 µM (%)
Just the number please, in %, no unit attached.

Known inhibition at 1 µM results, listed for orientation:
molecule	valueUnits	inhibition at 1 µM
Cc1cnc(NC(=O)CC[C@@H]2CC(=O)[C@@]3(C)CCC4c5ccc(OS(=O)(=O)N(C)C)cc5CCC4C23)s1 (stereo partly shown)	%	6
Cc1cnc(NC(=O)CC[C@@H]2CC(=O)[C@@]3(C)CCC4c5cc6[nH]c(=O)oc6cc5CCC4C23)s1 (stereo partly shown)	%	40
Cc1cnc(NC(=O)CC[C@@H]2CC(=O)[C@@]3(C)CCC4c5ccc(OC(=O)CNC(=O)OC(C)(C)C)cc5CCC4C23)s1 (stereo partly shown)	%	0

Here's the next entry for you.
# input Lookup: inhibition at 1 µM / recombinant human 17β-HSD2 (Homo sapiens) / Cc1cnc(NC(=O)CC[C@@H]2CC(=O)[C@@]3(C)CCC4c5cc(CN6CCCC6)c(O)cc5CCC4C23)s1 (stereo partly shown)
# output 0

###

Recorded inhibition at 1 µM by entry
# experimentalSystem: recombinant human 17β-HSD1 (Homo sapiens)
# Construct: made in house; host or cells: Sd9 (Sf9) insect cells, baculovirus (Bac to Bac Expression System)
# testProtocol: Inhibition of recombinant human 17β-HSD1
# Assay type: biochemical
# studyConditions: inhibitor at 1 μM; 30 nM estrone, 1 mM NADPH, 30 min at RT; read-out: 17β-HDS1 Inhibition % at 1 μM
Just the number please, in %, no unit attached.

Known inhibition at 1 µM results, listed for orientation:
compound	experimentalSystem	valueUnits	inhibition at 1 µM
Cc1cnc(NC(=O)CC[C@@H]2CC(=O)[C@@]3(C)CCC4c5cc(N)c(O)cc5CCC4C23)s1 (stereo partly drawn) [Compound 37]	recombinant human 17β-HSD1 (Homo sapiens)	%	88
Cc1cnc(NC(=O)CC[C@@H]2CC(=O)[C@@]3(C)CCC4c5cc6[nH]c(=O)oc6cc5CCC4C23)s1 (stereo partly drawn) [Compound 50]	recombinant human 17β-HSD1 (Homo sapiens)	%	91

Here's the next entry for you.
# input Need inhibition at 1 µM, item Cc1cnc(NC(=O)CC[C@@H]2CC(=O)[C@@]3(C)CCC4c5ccc6oc(=O)[nH]c6c5CCC4C23)s1 (stereo partly drawn) [Compound 51]
# output 78

###

Recorded inhibition at 1 µM by entry
# experimentalSystem: recombinant human 17β-HSD2 (Homo sapiens, UniProt P37059)
# Construct: made in house; host or cells: Sd9 (Sf9) insect cells, baculovirus (Bac to Bac Expression System)
# testProtocol: Inhibition of recombinant human 17β-HSD2
# Type: biochemical
# studyConditions: inhibitor at 1 μM; 50 nM estradiol, 1 mM NADH, 30 min at RT; read-out: 17β-HSD2 Inhibition % at 1 μM
Just the number please, in %, no unit attached.

Known inhibition at 1 µM results, listed for orientation:
compound	valueUnits	inhibition at 1 µM
Cc1cnc(NC(=O)CC[C@@H]2CC(=O)[C@@]3(C)CCC4c5cc(Cl)c(O)cc5CCC4C23)s1 (stereo partly drawn)	%	5
Cc1cnc(NC(=O)CC[C@@H]2CC(=O)[C@@]3(C)CCC4c5cc(I)c(O)c(I)c5CCC4C23)s1 (stereo partly drawn)	%	5
Cc1cnc(NC(=O)CC[C@@H]2CC(=O)[C@@]3(C)CCC4c5cc(N)ccc5CCC4C23)s1 (stereo partly drawn)	%	2
Cc1cnc(NC(=O)CC[C@@H]2CC(=O)[C@@]3(C)CCC4c5ccc(O)c(N)c5CCC4C23)s1 (stereo partly drawn)	%	9

# input Need inhibition at 1 µM, item Cc1cnc(NC(=O)CC[C@@H]2CC(=O)[C@@]3(C)CCC4c5ccc6ocnc6c5CCC4C23)s1 (stereo partly drawn)
# output 3

# input And Cc1nc2cc3c(cc2o1)CCC1C3CC[C@]2(C)C(=O)C[C@@H](CCC(=O)Nc3ncc(C)s3)C12 (stereo partly drawn) ?
# output 2

# input And Cc1cnc(NC(=O)CC[C@@H]2CC(=O)[C@@]3(C)CCC4c5cc([N+](=O)[O-])c(O)cc5CCC4C23)s1 (stereo partly drawn) ?
# output 10
